Numbers sourced from PubChem BioAssay (NCI).

Here, each record is paired with measured growth data.
- Tested on: MOLT-4 leukemia
- Assay: NCI-60 one-dose screen, 48 h (100 = growth as untreated, 0 = no growth, -100 = all killed)
- Particulars: 10 µM unless noted
The panel holds about 83,000 compounds, 20% with a hit somewhere; the sample as a whole holds those more often.
All answers are understood in %, so give the number only.

Memo: `C[C@H](CCC[C@H](C)OS(=O)(=O)c1ccccc1)OS(=O)(=O)c1ccccc1` , reported growth: 115

* * *

- System: LOX IMVI melanoma
- Assay: NCI-60 one-dose screen, 48 h (100 = growth as untreated, 0 = no growth, -100 = all killed)
- Particulars: 10 µM
The panel holds about 83,000 compounds, 20% with a hit somewhere; the sample as a whole holds those more often.
Label 0 (no) if growth falls below 50%; label 1 (yes) in every other case.

Examples from the recorded data:
Compound: CCN(Cc1ccc(Cl)c(Cl)c1)c1ccc2nc(N)nc(N)c2c1C
Answer label: 0 (no)

Compound: O=C(CCl)Nc1ccccc1SCc1cc(Cl)cc2c1OCOC2
Answer label: 0 (no)

Compound: CCC(/C=C\C(C)=O)CC
Answer label: 1 (yes)

[ask] Exam item: decide whether the reported growth for `CC1=CC(=Nc2ccc(N(C)C)cc2)C=C(C)C1=O` is at least 50%.
[reply] 0 (no)

[ask] Check the entry `Nc1c(Br)cc(O)c2c1C(=O)c1ccccc1C2=O` : does growth equal or exceed 50%?
[reply] 0 (no)

[ask] Is it the case that CCN(CC)CCCC(C)NC(=S)N/N=C(\C)c1ccccn1 (stereo unspecified) has growth reaching or exceeding 50%?
[reply] 0 (no)
